Test system: A673/TR/shEF
ASSAY_EXPLANATION: cell viability (LOESS-normalised, relative to median of negative controls) (log2 ratio); higher = more viable cells (less compound effect), active = hit call of the paper (over 3 MAD below the median)
PROTOCOL_CONDITIONS: 25 µM; library screen: screen3; EWS-FLI1 expression: high (no doxycycline); treatment time: 72 h
Hit rate of the full screen: of about 3,200 compounds, about 300 (9.4%) showed activity. This is one part of a sample in which actives are shown more often than they occur.
Just give me one of these, please: active, inactive

{"columns": ["MOLECULE", "CLASS"],
 "data": [
  ["Cc1c(N)nc(C(CC(N)=O)NCC(N)C(N)=O)nc1C(=O)NC(C(=O)NC(C)C(O)C(C)C(=O)NC(C(=O)NCCc1nc(-c2nc(C(=O)NCCC[S+](C)C)cs2)cs1)C(C)O)C(O[C@@H]1O[C@@H](CO)[C@@H](O)[C@H](O)[C@@H]1O[C@H]1O[C@H](CO)[C@@H](O)[C@H](OC(N)=O)[C@@H]1O)c1cnc[nH]1 (stereo partly drawn)", "inactive"],
  ["CC(=O)O[C@H]1C[C@@H]2CC[C@@H]3[C@H](CC[C@@]4(C)[C@H]3C[C@H]([N+]3(C)CCCCC3)[C@@H]4OC(C)=O)[C@@]2(C)C[C@@H]1[N+]1(C)CCCCC1", "inactive"],
  ["CC1=C2C[C@H]3[C@@H](CC=C4C[C@@H](O)CC[C@@]43C)[C@@H]2CC[C@]12O[C@@H]1C[C@H](C)CN[C@H]1[C@H]2C", "inactive"],
  ["O=C(OC1CC2CCC(C1)[N+]21CCCC1)C(O)(c1ccccc1)c1ccccc1 (stereo not drawn)", "inactive"],
  ["COP(=S)(OC)SCn1nnc2ccccc2c1=O", "active"]
]}

Test call for this molecule, please: O=P1(N(CCCl)CCCl)NCCCO1 (stereo not drawn)
inactive

Could you kindly confirm the outcome this assay logged for `CC[C@@]1(O)C(=O)OCc2c1cc1n(c2=O)Cc2cc3ccccc3nc2-1` ?
active

Would you mind telling me which call this test gave `C[C@]12CC[C@H](O)CC1=CC[C@@H]1[C@@H]2CC[C@]2(C)C(=O)CC[C@@H]12` ?
inactive
